Field: Selectivity Index. Provide a value for each of the compounds that follow.
# Tested on: Leishmania donovani
# assay_text: Antileishmanial assay, Leishmania in infected macrophages (L. donovani)
# measurement_context: IC50 for HepG2 cells/IC50 for Leishmania donovani
Give bare numbers.

The following compounds each have a reported value; give each one's Selectivity Index.
1. C=C[C@@H](C#CC#C[C@@H](CCCCCCCCC)NS(C)(=O)=O)OC(C)=O
2. C=C[C@@H](C#CC#C[C@H](O)CCC)OC(C)=O
3. C=C[C@H](O)C#CC#C[C@H](O)CCCCCCCCC

[A]
530
290
2900

---

# Test system: C. albicans
# assay_text: MIC broth microdilution, Alamar Blue
# Format: cell-based
# measurement_context: minimum inhibitory concentration
What MIC C. albicans was measured for each of the following?

[[record]]
compound = "C=C[C@@H](C#CC#C[C@H](O)CCCCCCCCCCCCCCC)OC(C)=O (stereo in doubt) [Compound 44]"
tested_on = "C. albicans"
value_measured = ">1000"

[[record]]
compound = "C=C[C@@H](C#CC#C[C@@H](CCCCCCCCC)NCCCC)OC(C)=O [Compound 48]"
tested_on = "C. albicans"
value_measured = 1000


Each compound below has a recorded value; state its MIC C. albicans.
1. C=C[C@@H](C#CC#C[C@@H](CCCCCCCCC)NS(C)(=O)=O)OC(C)=O [Compound 46]
2. C=C[C@@H](C#CC#C[C@H](O)CCCCCCCCC)OC(C)=O [Compound 1]

[A]
1. >1000
2. >1000

---

# Test system: S. pyogenes
# assay_text: MIC broth microdilution, Alamar Blue
# Assay type: cell-based
# measurement_context: minimum inhibitory concentration
reported_metric: MIC S. pyogenes

Use these answered entries as a reference point.
[[record]]
molecule = "C=C[C@@H](C#CC#C[C@@H](CCCCCCCCC)NCCCC)OC(C)=O [Compound 48]"
tested_on = "S. pyogenes"
reported_metric = "MIC S. pyogenes"
value_measured = 250

[[record]]
molecule = "C=C[C@@H](C#CC#C[C@@H](CCCCCCCCC)NC(=O)c1ccccc1)OC(C)=O [Compound 47]"
tested_on = "S. pyogenes"
reported_metric = "MIC S. pyogenes"
value_measured = ">1000"

[[record]]
molecule = "C=C[C@@H](C#CC#C[C@H](O)CCCCCCCCC)OC(C)=O [Compound 1]"
tested_on = "S. pyogenes"
reported_metric = "MIC S. pyogenes"
value_measured = 8


# next molecule below
[Q] Consider the molecule C=C[C@@H](C#CC#C[C@H](O)CCCCCCCCCCCCCCC)OC(C)=O (stereo in doubt) [Compound 44] and give its measured MIC S. pyogenes.
[A] >1000

---

# Test system: C. albicans
# assay_text: MIC broth microdilution, Alamar Blue
# Assay type: cell-based
# measurement_context: minimum inhibitory concentration
Give measured MIC C. albicans for each item. Keep answers brief.
One number for each entry.

Example compounds with recorded MIC C. albicans:
[[record]]
molecular_string = "C=C[C@@H](C#CC#C[C@H](O)CCC)OC(C)=O"
value_measured = 250

[[record]]
molecular_string = "C=C[C@@H](C#CC#C[C@H](N)CCCCCCCCC)OC(C)=O"
value_measured = 250


Then there is this compound:
[Q] So what's the measured MIC C. albicans for this one? C=C[C@H](O)C#CC#C[C@H](O)CCCCCCCCC
[A] 16

---

# System: S. pyogenes
# assay_text: MIC broth microdilution, Alamar Blue
# Type: cell-based
# measurement_context: minimum inhibitory concentration
Please go through the items and note down their MIC S. pyogenes.

[[record]]
molecular_string = "C=C[C@@H](C#CC#C[C@@H](CCCCCCCCC)OS(C)(=O)=O)OC(C)=O"
reported_metric = "MIC S. pyogenes"
value_measured = 125

[[record]]
molecular_string = "C=C[C@@H](C#CC#C[C@H](N)CCCCCCCCC)OC(C)=O"
reported_metric = "MIC S. pyogenes"
value_measured = 250

[[record]]
molecular_string = "C=C[C@@H](C#CC#C[C@H](O)CCC)OC(C)=O"
reported_metric = "MIC S. pyogenes"
value_measured = 250

[[record]]
molecular_string = "C=C[C@@H](C#CC#C[C@@H](CCCCCCCCC)NS(C)(=O)=O)OC(C)=O"
reported_metric = "MIC S. pyogenes"
value_measured = 8


Now, please, on to the next compound.
[Q] Looking for the measured MIC S. pyogenes of C=C[C@H](O)C#CC#C[C@H](O)CCCCCCCCC , can you help?
[A] 8

---

# assay_text: Body and organ weights of infected, treated BALB/c mice
# Assay type: in vivo
# measurement_context: post-treatment, 10 mg/kg i.p., group mean
Task for the reader: assign each of the following compounds its reported Mean body weight of mice Post-treatment.
Numbers only, in g.

[[record]]
compound = "C=C[C@@H](C#CC#C[C@@H](CCCCCCCCC)NCCCC)OC(C)=O [Compound 48]"
value_measured = 18.8

[[record]]
compound = "CCCCCCCCCCCCCCCCOP(=O)([O-])OCC[N+](C)(C)C [Miltefosine, reference compound]"
value_measured = 18.4


Take each entry in turn and give its Mean body weight of mice Post-treatment.
1. C=C[C@H](O)C#CC#C[C@H](O)CCCCCCCCC [Compound 50]
2. C=C[C@@H](C#CC#C[C@@H](CCCCCCCCC)NC(=O)c1ccccc1)OC(C)=O [Compound 47]

[A]
[14.5, 18.6]

---

Could you please report measured LDU mean ± SD for the items listed next?
# System: leishmaniasis (LV82 PM infection), liver parasitemia
# assay_text: In vivo efficacy: liver parasitemia in BALB/c mice with leishmaniasis
# measurement_context: 10 mg/kg i.p., group mean, n=4
Give bare numbers.

Example entries begin here.
[[record]]
molecule = "C=C[C@@H](C#CC#C[C@@H](CCCCCCCCC)NC(=O)c1ccccc1)OC(C)=O [Compound 47]"
value_measured = 2979.6

[[record]]
molecule = "C=C[C@@H](C#CC#C[C@@H](CCCCCCCCC)NCCCC)OC(C)=O [Compound 48]"
value_measured = 2721.9

[[record]]
molecule = "CCCCCCCCCCCCCCCCOP(=O)([O-])OCC[N+](C)(C)C [Miltefosine, reference compound]"
value_measured = 87.0


Field: next molecule
[Q] LDU mean ± SD of C=C[C@H](O)C#CC#C[C@H](O)CCCCCCCCC [Compound 50] on leishmaniasis (LV82 PM infection), liver parasitemia?
[A] 2367.2

---

# Tested on: Leishmania amazonensis
# assay_text: Antileishmanial assay, Leishmania in infected macrophages (L. amazonensis)
# measurement_context: Leishmania amazonensis, Macrophage, read-out: IC50 Leishmania in infected macrophages
Please provide measured IC50 for the entries that follow.

[[record]]
molecule = "C=C[C@H](C#CC#C[C@H](O)CCCCCCCCC)OC(C)=O"
reported_metric = "IC50"
value_measured = "> 10000 nM"


Give me IC50 for each of these molecules, listed below.
1. C=C[C@@H](C#CC#C[C@H](O)CCCCCCCCC)OC(C)=O
2. C=CC(C#CC#CC(O)CCCCCCCCC)OC(C)=O [(S,S)-1, reference compound]

[A]
1. 626 nM
2. 1280 nM

[Q] Give IC50 (Leishmania amazonensis) of the following molecule: C=C[C@H](C#CC#C[C@@H](O)CCCCCCCCC)OC(C)=O
[A] > 10000 nM

---

# assay_text: Body and organ weights of infected, treated BALB/c mice
# Format: in vivo
# measurement_context: pre-treatment (baseline), group mean
reported_metric: Mean body weight of mice Pre-treatment (g)
Numbers only, in g.

Past entries and their recorded results:
[[record]]
molecule = "CCCCCCCCCCCCCCCCOP(=O)([O-])OCC[N+](C)(C)C [Miltefosine, reference compound]"
value_measured = 18.4

[[record]]
molecule = "C=C[C@H](O)C#CC#C[C@H](O)CCCCCCCCC"
value_measured = 16.3

[[record]]
molecule = "C=C[C@@H](C#CC#C[C@@H](CCCCCCCCC)NCCCC)OC(C)=O"
value_measured = 19.3


# evaluate next
[Q] Endpoint output: Mean body weight of mice Pre-treatment of C=C[C@@H](C#CC#C[C@@H](CCCCCCCCC)NC(=O)c1ccccc1)OC(C)=O . Value?
[A] 19.2

---

# Test system: B. anthracis
# Format: cell-based
# measurement_context: minimum inhibitory concentration
reported_metric: MIC B. anthracis
One number for each entry.

Example cases with answers are listed next.
[[record]]
molecular_string = "C=C[C@@H](C#CC#C[C@@H](CCCCCCCCC)OS(C)(=O)=O)OC(C)=O"
reported_metric = "MIC B. anthracis"
value_measured = 250

[[record]]
molecular_string = "C=C[C@@H](C#CC#C[C@@H](CCCCCCCCC)NCCCC)OC(C)=O"
reported_metric = "MIC B. anthracis"
value_measured = 250

[[record]]
molecular_string = "C=C[C@H](O)C#CC#C[C@H](O)CCCCCCCCC"
reported_metric = "MIC B. anthracis"
value_measured = 1000


// each listed compound needs a value for MIC B. anthracis
1. C=C[C@@H](C#CC#C[C@H](N)CCCCCCCCC)OC(C)=O
2. C=C[C@@H](C#CC#C[C@H](O)CCCCCCCCC)OC(C)=O
3. C=C[C@@H](C#CC#C[C@H](O)CCC)OC(C)=O

[A]
1. 250
2. 4
3. 1000

Hey, just so you know, these numbers are from patent US20130261133A1.
